Test system: HL-60(TB) leukemia
METHOD SUMMARY: NCI-60 one-dose screen, 48 h
RUN PARAMETERS: 10 µM unless noted
About 83,000 compounds went through this panel and 20% of them were active in at least one assay; those are over-represented in the sample as a whole. Activity calls are given as the source filed them. The calls were made as follows: active = growth percent below 10; inactive = the rest.
Possible outcomes: class 1 = active, class 0 = inactive

MOLECULE | CLASS NAME
O=C(CSc1nccc(Nc2ccc(S(=O)(=O)Nc3ccccn3)cc2)n1)c1ccc(Cl)cc1 | class 0
CNS(=O)(=O)Oc1ccc(-c2ccc3occc3c2)cc1 | class 0
O=C(Nc1cccc(Cl)c1)c1cc([N+](=O)[O-])ccc1O | class 0
O=C1NC(=O)C2(CCCC2C(=O)O)N1 (stereo not given) | class 0
Cc1nc2sc(C(=O)Nc3cccc(Cl)c3C)c(N)c2cc1C(=O)c1ccccc1 | class 1

Just for reference, PubChem BioAssay (NCI) is where these values come from.
